Test system: NCI/ADR-RES
Assay: Cytotoxicity against human NCI-ADR-RES cells assessed as growth inhibition at 10 uM after 48 hrs by SRB assay
Assay type: functional, cell-based
Calls of active or inactive are those of the source. No cut-off for these calls is given here.
Possible outcomes: 1.0 = active, 0.0 = inactive

1) CC1(C)OB(c2ccc(N(CCCl)CCBr)cc2)OC1(C)C | 1.0
2) CC1(C)OB(c2ccc(COC(=O)N(CCCl)CCCl)cc2)OC1(C)C | 0.0
3) CC1(C)OB(c2ccc(N(CCCl)CCCl)cc2)OC1(C)C | 1.0
4) CC1(C)OB(c2ccc(N(CCCl)CCOS(C)(=O)=O)cc2)OC1(C)C | 1.0
5) CC1(C)OB(c2ccc(N(CCBr)CCOS(C)(=O)=O)cc2)OC1(C)C | 1.0
6) CC1(C)OB(c2ccc(N(CCBr)CCBr)cc2)OC1(C)C | 1.0
